Assay: Bidirectional transport (Papp, efflux ratio) of antimalarials through Caco-2 cell monolayers
Type: in vitro ADME, human
Conditions: human, Caco-2, Conc (μM) + inhibitor (μM): 100; Bas-Ap divided by Ap-Bas
Description: The initial experiments were conducted in mid-40s passage cells and repeated in early 80s passage Caco-2 cells. […] The analytes were detected at 222 nm and the retention time was 5.6 minutes. […] The analytes were detected at 343 nm with a retention time of 2.4 minutes. […] The analytes were detected at 660 nm with a retention time of 3.8 minutes. […] Quantitation was performed in multiple reactions monitoring, MRM mode, using DUIS (ESI^+ and APCI^+) ion sources. […]

>  <compound>
OC(c1cc(C(F)(F)F)nc2c(C(F)(F)F)cccc12)C1CCCCN1 (stereo not shown) [MQ, mefloquine]

>  <efflux ratio at 120 min, 100 µM>
1.2

$$$$

###

assay: Bidirectional transport (Papp, efflux ratio) of antimalarials through Caco-2 cell monolayers; format: in vitro ADME, human; conditions: human, Caco-2, Caco-2 monolayers; read-out: permeability across the gastrointestinal epithelium (class)
quantity_measured: Papp at 120 min

>  <compound>
C[C@H]1[C@H](N2CCS(=O)(=O)CC2)O[C@@H]2O[C@@]3(C)CC[C@H]4[C@H](C)CC[C@@H]1[C@@]24OO3

>  <result>
> 25 ×10⁻⁶ cm/s

$$$$
>  <compound>
C[C@H]1[C@H](OC(=O)CCC(=O)O)O[C@@H]2O[C@@]3(C)CC[C@H]4[C@H](C)CC[C@@H]1[C@@]24OO3 [ART, artesunate]

>  <result>
1 to 25 ×10⁻⁶ cm/s

$$$$
>  <compound>
OC(c1cc(C(F)(F)F)nc2c(C(F)(F)F)cccc12)C1CCCCN1 (stereo not drawn)

>  <result>
1 to 25 ×10⁻⁶ cm/s

$$$$

###

# Papp at 120 min annotations
test: Bidirectional transport (Papp, efflux ratio) of antimalarials through Caco-2 cell monolayers; type: in vitro ADME, human; details: human, Caco-2, Caco-2 monolayers; drug alone; read-out: Ap-Bas directional Papp, range over concentrations tested
quantity_measured: Papp at 120 min

>  <compound>
C[C@H]1[C@H](N2CCS(=O)(=O)CC2)O[C@@H]2O[C@@]3(C)CC[C@H]4[C@H](C)CC[C@@H]1[C@@]24OO3

>  <quantity_measured>
Papp at 120 min

>  <result>
37 to 60 ×10⁻⁶ cm/s

$$$$
>  <compound>
OC(c1cc(C(F)(F)F)nc2c(C(F)(F)F)cccc12)C1CCCCN1 (stereo not drawn)

>  <quantity_measured>
Papp at 120 min

>  <result>
6 to 10 ×10⁻⁶ cm/s

$$$$
>  <compound>
CCN(CC)Cc1cc(Nc2ccnc3cc(Cl)ccc23)ccc1O

>  <quantity_measured>
Papp at 120 min

>  <result>
16 to 22 ×10⁻⁶ cm/s

$$$$

###

Below, each entry is listed alongside its reported Papp at 120 min, 100 µM.
test: Bidirectional transport (Papp, efflux ratio) of antimalarials through Caco-2 cell monolayers; format: in vitro ADME, human; details: human, Caco-2; Conc (μM) + inhibitor (μM): 100; first-named drug measured; read-out: Papp Ap-Bas

>  <molecule>
CCN(CC)Cc1cc(Nc2ccnc3cc(Cl)ccc23)ccc1O [AQ, amodiaquine]

>  <Papp at 120 min, 100 µM [×10⁻⁶ cm/s]>
22.5

$$$$
>  <molecule>
OC(c1cc(C(F)(F)F)nc2c(C(F)(F)F)cccc12)C1CCCCN1 (centres unmarked) [MQ, mefloquine]

>  <Papp at 120 min, 100 µM [×10⁻⁶ cm/s]>
8.9

$$$$
